- PROCEDURE_SUMMARY: Half life in Beagle dog at 0.25 mg/kg, iv
- Format: ADME, organism-based, Canis lupus familiaris
- Design: dose 0.25 mg/kg, route intravenous
- SETTINGS: in vivo
QUANTITY: half-life (h)

Answered cases to consult:
Query: Given `Cc1noc(-c2c(Cl)cc(Cl)cc2-c2cnc([C@@H](C)NC(=O)[C@@](C)(O)C(F)(F)F)c(F)c2)n1` , state its recorded half-life.
Response: 9.5

Query: Also check `COC(=O)c1c(F)cccc1-c1ccc(CNC(=O)[C@@](C)(O)C(F)(F)F)c(F)c1`
Response: 1.4

Query: Also check `Cc1nc(-c2c(F)cc(Cl)cc2-c2cnc([C@@H](C)NC(=O)[C@@](C)(O)C(F)(F)F)c(F)c2)no1`
Response: 17

a = Cc1noc(-c2c(F)cc(Cl)cc2-c2cnc([C@@H](C)NC(=O)[C@@](C)(O)C(F)(F)F)c(F)c2)n1
b = COC(=O)c1c(Cl)cc(Cl)cc1-c1cnc([C@@H](C)NC(=O)[C@@](C)(O)C(F)(F)F)c(F)c1
c = C[C@@H](NC(=O)[C@@](C)(O)C(F)(F)F)c1ncc(-c2cc(Cl)cc(F)c2-c2nnn(C)n2)cc1Cl
d = C[C@@H](NC(=O)[C@@](C)(O)C(F)(F)F)c1ncc(-c2cc(Cl)cc(F)c2-c2nnn(C)n2)cc1F
Query: Hey, can you sort those molecules up there by half-life, smallest first? Provide your answer as the labels ordered per the instruction.
Response: b, c, a, d

Source listed as ChEMBL document CHEMBL1141559.
